Assay: qHTS RealTime-Glo MT Cell Viability Assay in HepG2 cells - 40 hour (AID 1224870); also: nearly all actives have a fitted effect of over 50% in size
Conditions: RealTime-Glo luminescence; series mostly up to 76.8 µM
From the text: National Center for Advancing Translational Sciences [NCATS] NIH Chemical Genomics Center [NCGC] U.S. Environmental Protection Agency [EPA] National Institutes of Environmental Health Sciences [NIEHS] National Toxicology Program [NTP] U.S. Food and Drug Administration [FDA] Measure of cell viability is critical in the cell-base assay. Analysis of cell viability is necessary for the characterization of cell responses to cytotoxic drugs and environmental stress. […]
Records with an inconclusive call do not appear. The source made the active and inactive calls. Calls follow the shape of the dose curve; as a rule, active = well fitted cell-killing curve with a large enough effect in the repeat runs; inconclusive = weak or mixed curves, or effect the other way; inactive = flat fitted curve, though single readings scatter.
Endpoint: outcome

C1CN(SSN2CCOCC2)CCO1
inactive
CC1(C)OC(=O)NC1=O
inactive
CCCCCCCCCCC(CO)CCCCCCCC (centres undefined)
inactive
Oc1ccc(C(c2ccc(O)cc2)C(Cl)(Cl)Cl)cc1
inactive
ClC/C=C/CCl
inactive

Report outcome for FC(F)(F)C(Cl)Br (centres undefined) please. inactive

Report outcome for `Cc1ccc(C(C)(C)C)cc1` please. inactive

Report outcome for `Cc1ccc(N)c([N+](=O)[O-])c1` please. inactive

Report outcome for `CCC/C=C/C=O` please. inactive

Report outcome for `CC(=O)Oc1ccc(C(c2ccc(OC(C)=O)cc2)c2ccccn2)cc1` please. inactive

Report outcome for `NC[C@H](O)c1ccc(O)c(O)c1` please. inactive

Report outcome for `C=C[C@@]1(C)CC(=O)[C@]2(O)[C@@]3(C)[C@@H](O)CCC(C)(C)[C@@H]3[C@H](O)[C@H](OC(C)=O)[C@@]2(C)O1` please. inactive

Report outcome for `CC1(C)NC(=O)N(c2ccc([N+](=O)[O-])c(C(F)(F)F)c2)C1=O` please. inactive

* * *

molecular target: Progesterone receptor (Homo sapiens); experiment: qHTS assay to identify small molecule agonists of the progesterone receptor (PR) signaling pathway (AID 1346784); settings: PR-UAS-bla HEK293T, beta-lactamase FRET ratio, 16 h; series mostly up to 92.4 µM; also: nearly all actives have a fitted effect of over 30% in size
Inconclusive results are not listed. Activity calls are given as the source filed them. Calls come from the whole dose curve.
Respond only with the outcome that fits, drawn from class 1 for active, class 0 for inactive

What is the recorded call for this molecule in the test? `CCCCCCCCCCCCCO` class 0

What is the recorded call for this molecule in the test? CCc1cccc2c3c([nH]c12)C(CC)(CC(=O)O)OCC3 (stereo not given) class 0

What is the recorded call for this molecule in the test? `CCCCCC=O` class 0

What is the recorded call for this molecule in the test? `CC(C)(C)c1cccc(C(C)(C)C)c1O` class 0

What is the recorded call for this molecule in the test? `O=Cc1ccccc1C=O` class 0

What is the recorded call for this molecule in the test? `CC(C)(Oc1ccc(Cl)cc1)C(=O)O` class 0

What is the recorded call for this molecule in the test? `COCCOCCOCCO` class 0

What is the recorded call for this molecule in the test? `NC[C@H](O)c1ccc(O)c(O)c1` class 0

What is the recorded call for this molecule in the test? `CC(=O)[C@H]1CC[C@H]2[C@@H]3CC=C4C[C@@H](O)CC[C@]4(C)[C@H]3CC[C@]12C` class 1

What is the recorded call for this molecule in the test? `O=[Se](O)O` class 0

What is the recorded call for this molecule in the test? `O=C(O)c1ccc(O)cc1` class 0

What is the recorded call for this molecule in the test? `C=CN1CCCC1=O` class 0

What is the recorded call for this molecule in the test? `O=C(O)CCCCCCCCCCCC(=O)O` class 0

What is the recorded call for this molecule in the test? `[Na+]` class 0

What is the recorded call for this molecule in the test? CCC(Cc1c(I)cc(I)c(N)c1I)C(=O)O (stereo not given) class 0
